test: Hexaglutamyl homologue inhibition activity against the Glycinamide ribonucleotide transformylase (GAR-TFase) was determined against hog liver; format: tissue-based, Sus scrofa
endpoint_name: IC50 (nM)
Give bare numbers, in nM.

Request: // fetch IC50 given entry "Nc1nc(N)c(CCCNc2ccc(C(=O)N[C@@H](CCC(=O)O)C(=O)O)cc2)c(O)n1"
Response: 260

----------
target: Bifunctional purine biosynthesis protein ATIC (Mus musculus, UniProt Q9CWJ9); assay: Inhibition activity against AICAR formyltransferase determined against L cell; assay type: cell-based
endpoint_name: pIC50
Answers are plain numbers, as −log10 of the molar value.

Request: // fetch pIC50 given entry "Nc1nc(N)c(CCCNc2ccc(C(=O)N[C@@H](CCC(=O)O)C(=O)O)cc2)c(=O)[nH]1"
Response: 3.70

----------
Molecular target: Bifunctional purine biosynthesis protein ATIC (Mus musculus, UniProt Q9CWJ9)
Sequence (Q9CWJ9 whole entry): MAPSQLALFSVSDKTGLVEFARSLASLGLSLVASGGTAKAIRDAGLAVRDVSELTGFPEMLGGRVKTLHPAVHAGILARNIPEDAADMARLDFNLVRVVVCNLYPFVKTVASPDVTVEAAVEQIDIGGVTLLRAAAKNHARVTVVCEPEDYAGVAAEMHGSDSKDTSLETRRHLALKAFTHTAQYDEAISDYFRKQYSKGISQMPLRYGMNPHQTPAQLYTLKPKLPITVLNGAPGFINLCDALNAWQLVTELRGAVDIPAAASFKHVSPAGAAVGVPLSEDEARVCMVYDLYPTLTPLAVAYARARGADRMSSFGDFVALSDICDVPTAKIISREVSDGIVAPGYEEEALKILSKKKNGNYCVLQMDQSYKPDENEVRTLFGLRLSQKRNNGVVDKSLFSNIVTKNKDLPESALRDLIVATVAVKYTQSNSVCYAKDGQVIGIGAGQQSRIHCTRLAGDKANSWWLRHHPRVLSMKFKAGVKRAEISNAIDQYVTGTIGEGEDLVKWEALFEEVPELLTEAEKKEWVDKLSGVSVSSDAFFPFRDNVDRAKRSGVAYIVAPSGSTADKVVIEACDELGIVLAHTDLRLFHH
Experiment: Hexaglutamyl homologue inhibition activity against the AICAR formyltransferase was determined against L cell
Assay type: cell-based
endpoint_name: IC50 (µM)
Give bare numbers, in µM.

Request: // fetch IC50 given entry "Nc1nc(N)c(CCCNc2ccc(C(=O)N[C@@H](CCC(=O)O)C(=O)O)cc2)c(=O)[nH]1"
Response: 0.7

----------
Target: Bifunctional purine biosynthesis protein ATIC (Mus musculus, UniProt Q9CWJ9)
Sequence (Q9CWJ9 whole entry): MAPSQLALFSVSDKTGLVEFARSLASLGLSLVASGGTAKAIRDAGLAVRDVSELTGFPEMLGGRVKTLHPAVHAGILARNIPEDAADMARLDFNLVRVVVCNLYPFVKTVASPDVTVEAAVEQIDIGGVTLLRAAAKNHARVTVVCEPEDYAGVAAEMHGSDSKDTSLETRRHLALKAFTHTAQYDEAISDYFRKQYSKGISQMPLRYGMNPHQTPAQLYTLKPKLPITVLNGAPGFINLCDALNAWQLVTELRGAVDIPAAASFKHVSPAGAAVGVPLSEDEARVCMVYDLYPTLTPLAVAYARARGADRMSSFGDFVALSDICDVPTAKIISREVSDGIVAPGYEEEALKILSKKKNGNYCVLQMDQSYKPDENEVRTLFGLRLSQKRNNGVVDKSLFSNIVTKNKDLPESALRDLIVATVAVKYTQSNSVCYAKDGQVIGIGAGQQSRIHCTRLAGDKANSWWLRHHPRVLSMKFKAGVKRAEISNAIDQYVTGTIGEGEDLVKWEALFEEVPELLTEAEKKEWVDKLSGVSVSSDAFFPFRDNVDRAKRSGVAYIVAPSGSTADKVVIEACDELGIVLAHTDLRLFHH
Assay: Diglutamyl homologue inhibition activity against the AICAR formyltransferase was determined against L cell
Type: cell-based
endpoint_name: IC50

Request: // fetch IC50 given entry "Nc1nc(N)c(CCCNc2ccc(C(=O)N[C@@H](CCC(=O)O)C(=O)O)cc2)c(=O)[nH]1"
Response: 9.4 µM

Value source: ChEMBL document CHEMBL1125043
